Recorded relative biological activity (CTLL2 cell proliferation), one value per entry.
- Test Target: T1, high-affinity receptor IL-2Rα/β/γ on CTLL2 cells (mouse-derived cell line) (mouse, UniProt P01590 22-268; P16297 27-539; P34902 23-369)
- T1 sequence (looked up) 1: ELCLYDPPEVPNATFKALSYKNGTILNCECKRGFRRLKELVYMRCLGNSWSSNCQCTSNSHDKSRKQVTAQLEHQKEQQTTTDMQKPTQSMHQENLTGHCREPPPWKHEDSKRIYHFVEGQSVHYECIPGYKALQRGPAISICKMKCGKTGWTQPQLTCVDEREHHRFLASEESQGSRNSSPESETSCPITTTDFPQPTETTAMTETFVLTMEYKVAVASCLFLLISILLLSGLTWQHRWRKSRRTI
- T1 sequence (looked up) 2: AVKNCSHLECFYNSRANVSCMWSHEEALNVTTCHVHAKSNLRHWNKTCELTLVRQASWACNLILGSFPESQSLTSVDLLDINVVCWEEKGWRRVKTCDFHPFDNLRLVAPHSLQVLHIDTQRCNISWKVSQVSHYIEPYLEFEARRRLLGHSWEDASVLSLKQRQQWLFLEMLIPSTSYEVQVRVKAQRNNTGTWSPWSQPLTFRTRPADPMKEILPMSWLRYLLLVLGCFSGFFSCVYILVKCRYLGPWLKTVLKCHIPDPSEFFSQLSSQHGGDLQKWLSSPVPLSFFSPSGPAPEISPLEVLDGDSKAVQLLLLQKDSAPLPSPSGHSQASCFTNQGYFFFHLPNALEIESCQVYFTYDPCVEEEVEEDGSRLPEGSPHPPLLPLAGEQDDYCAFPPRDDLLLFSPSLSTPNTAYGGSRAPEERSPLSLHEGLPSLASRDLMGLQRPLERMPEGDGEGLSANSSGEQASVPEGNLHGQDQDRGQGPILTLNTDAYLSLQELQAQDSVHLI
- T1 sequence (looked up) 3: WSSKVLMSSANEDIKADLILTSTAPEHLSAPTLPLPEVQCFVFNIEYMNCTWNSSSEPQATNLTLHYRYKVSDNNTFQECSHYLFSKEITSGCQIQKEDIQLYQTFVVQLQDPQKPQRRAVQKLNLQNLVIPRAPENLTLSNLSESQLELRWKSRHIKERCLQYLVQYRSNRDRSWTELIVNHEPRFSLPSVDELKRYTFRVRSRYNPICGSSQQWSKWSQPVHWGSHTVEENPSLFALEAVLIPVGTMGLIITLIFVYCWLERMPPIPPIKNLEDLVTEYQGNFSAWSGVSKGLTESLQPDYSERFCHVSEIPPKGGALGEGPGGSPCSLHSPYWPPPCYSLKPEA
- Assay Overview: cell-based or functional assay
Number only, in %; omit the unit.

IL-2-04 (L70C/P82C) (ligand, The entry already carries the mutations and C125A and begins with M. Made in E. coli) MAPTSSSTKKTQLQLEHLLLDLQMILNGINNYKNPKLTRMLTFKFYMPKKATELKHLQCLEEELKPLEEVCNLAQSKNFHLRCRDLISNINVIVLELKGSETTFMCEYADETATIVEFLNRWITFAQSIISTLT ... 176

Q) Please supply the value of reported relative biological activity (CTLL2 cell proliferation) for the item IL-2-03 (Q11C/L132C) (ligand, The entry already carries the mutations and C125A and begins with M. Made in E. coli) MAPTSSSTKKTCLQLEHLLLDLQMILNGINNYKNPKLTRMLTFKFYMPKKATELKHLQCLEEELKPLEEVLNLAQSKNFHLRPRDLISNINVIVLELKGSETTFMCEYADETATIVEFLNRWITFAQSIISTCT
A) 162
